Measured values drawn from ChEMBL document CHEMBL5230088 for this set.

Test system: Murine hepatitis virus
assay-procedure: Antiviral activity against MHV infected in mouse Astrocytoma delayed brain tumor (DBT) cells
Format: functional, organism-based
run-parameters: Murine coronavirus, Astrocytoma delayed brain tumor (DBT) cell
measure: pEC50
Bear in mind: pEC50 is minus log10 of a mol/L concentration; give just that figure.

Briefly, pEC50 measured for CCC(CC)COC(=O)[C@H](C)N[P@](=O)(OC[C@H]1O[C@@](C#N)(c2ccc3c(N)ncnn23)[C@H](O)[C@@H]1O)Oc1ccccc1 : 7.52

* * *

assay-procedure: Cytotoxicity against mouse Astrocytoma delayed brain tumor (DBT) cells
Assay type: toxicity, cell-based, Astrocytoma delayed brain tumor (DBT) cell
measure: CC50 (µM)
Write the number in µM without appending the unit.

Kindly note the recorded CC50 for CCC(CC)COC(=O)[C@H](C)N[P@](=O)(OC[C@H]1O[C@@](C#N)(c2ccc3c(N)ncnn23)[C@H](O)[C@@H]1O)Oc1ccccc1 , which is 39

* * *

assay-procedure: Cytotoxicity against African green monkey Vero E6 cells
Format: toxicity, cell-based, Vero C1008
run-parameters: chlorocebus sabaeus
measure: CC50

# molecule CCC(CC)COC(=O)[C@H](C)N[P@](=O)(OC[C@H]1O[C@@](C#N)(c2ccc3c(N)ncnn23)[C@H](O)[C@@H]1O)Oc1ccccc1 ; its CC50 = > 100 µM

* * *

System: Respiratory syncytial virus
assay-procedure: Antiviral activity against RSV
Type: functional, organism-based
run-parameters: human respiratory syncytial virus
measure: pEC50
Remember, pEC50 is on a log scale: it is -log10 of the molar concentration.

Kindly note the recorded pEC50 for CCC(CC)COC(=O)[C@H](C)N[P@](=O)(OC[C@H]1O[C@@](C#N)(c2ccc3c(N)ncnn23)[C@H](O)[C@@H]1O)Oc1ccccc1 , which is 7.72

* * *

System: Ebolavirus
assay-procedure: Antiviral activity against EBOV infected in human endothelial cells assessed as reduction in viral replication
Type: functional, organism-based
run-parameters: Orthoebolavirus
measure: pEC50
// pEC50: -log10(molar conc.)

Lab note: CCC(CC)COC(=O)[C@H](C)N[P@](=O)(OC[C@H]1O[C@@](C#N)(c2ccc3c(N)ncnn23)[C@H](O)[C@@H]1O)Oc1ccccc1 gave pEC50 of 7.22

* * *

Tested on: Nipah virus
assay-procedure: Antiviral activity against NiV by antigen reduction assay
Type: functional, organism-based
run-parameters: Henipavirus nipahense
measure: EC50 (µM)
Numeric only. Scale: µM

The compound listed as CCC(CC)COC(=O)[C@H](C)N[P@](=O)(OC[C@H]1O[C@@](C#N)(c2ccc3c(N)ncnn23)[C@H](O)[C@@H]1O)Oc1ccccc1 shows EC50 equal to 0.029

* * *

Tested on: Middle East respiratory syndrome-related coronavirus
assay-procedure: Antiviral activity against MERS-CoV infected in HLE cells assessed as inhibition of viral replication
Type: functional, organism-based
measure: pIC50
pIC50 field: float, defined as -log10 of concentration (mol/L).

What the record says about CCC(CC)COC(=O)[C@H](C)N[P@](=O)(OC[C@H]1O[C@@](C#N)(c2ccc3c(N)ncnn23)[C@H](O)[C@@H]1O)Oc1ccccc1 : pIC50 is 7.60

* * *

Tested on: Ebolavirus
assay-procedure: Antiviral activity against EBOV infected in HFF assessed as reduction in viral replication
Assay type: functional, organism-based
run-parameters: Orthoebolavirus
measure: pEC50
Recall that pEC50 is obtained by taking minus log10 of the concentration measured in molar.

The reported Ebolavirus pEC50 of CCC(CC)COC(=O)[C@H](C)N[P@](=O)(OC[C@H]1O[C@@](C#N)(c2ccc3c(N)ncnn23)[C@H](O)[C@@H]1O)Oc1ccccc1 is 7.22
